test: Half life in rat liver microsomes; type: ADME, Microsome
EXPERIMENTAL_ENDPOINT: half-life (min)
Supply the numeric figure in min, leaving out any unit text.

For this molecule ( O=C(CCCCCCc1ccccc1)c1ncc(-c2ccccn2)o1 ), measured half-life is 2

----------
test system: Mus musculus; assay: Inhibition of FAAH in C57Bl/6J mouse brain assessed as increase of 2-arachidonoylglycerol level at 30 mg/kg, ip after 1 hr relative to control; assay type: functional; conditions: route intraperitoneal
EXPERIMENTAL_ENDPOINT: fold change (FC)
Give only the figure.

fold change (FC) for O=C(c1ncc(-c2ccccn2)o1)C1Cc2ccc(Oc3ccccc3)cc2C1 (centres undefined) is 0.8

Lab note: measured fold change (FC) of O=C(c1ncc(-c2ccccn2)o1)[C@H]1CCc2cc(Oc3ccccc3)ccc2C1 was 0.9

GET /value?item= O=C(O)c1cccc(-c2cnc(C(=O)C3Cc4ccc(Oc5ccccc5)cc4C3)o2)n1 (centres undefined) &field=fold change (FC) returns 0.9

Record O=C(O)c1cccc(-c2cnc(C(=O)[C@H]3CCc4cc(Oc5ccccc5)ccc4C3)o2)n1 . Reported fold change (FC): 1

From: ChEMBL document CHEMBL1765010
